Measured TGI values are reported for all entries that follow.
# Test system: ACHN renal
# Experiment: NCI tumour cell line growth inhibition, 48 h
Form entry: value (µM) — number only.

Cc1[nH]n(C(=O)c2ccccc2O)c(=O)c1/C=C1\C(=O)C=Cc2ccccc21 = 12.8

// next item, TGI requested
Data request: // lookup TGI for CC(=O)O[C@H]1CC[C@@]2(C)C(=CC[C@@H]3C2CC[C@]2(C)Nc4oncc4CC32)C1 (stereo not given in full)
Data returned: 72.4

====

# Test system: 786-0 renal
# Experiment: NCI tumour cell line growth inhibition, 48 h
# GI50 listing for each entry below

Data request: # input molecule: CC(CN(CP(=O)([O-])[O-])CP(=O)([O-])[O-])N(CP(=O)([O-])[O-])CP(=O)([O-])[O-].N[C@@H]1CCCC[C@@H]1N.[Pt+2] (stereo not drawn) ; wanted: its GI50
Data returned: > 100 µM

Data request: # input molecule: CC(O)CN(CCN(CC(C)O)CC(C)O)CC(C)O.O=[N+]([O-])O.[Cu+2] (stereo not drawn) ; wanted: its GI50
Data returned: > 100 µM

Data request: Which GI50 value belongs to N#Cc1c2ccccc2c2nnc3cc(Cl)c(Cl)cc3n12 ?
Data returned: > 100 µM

Data request: Reported GI50, molecule O=[N+]([O-])c1ccc2[nH]cc(-c3c4ccccc4cc4[nH]c5ccc([N+](=O)[O-])cc5c34)c2c1 : ____
Data returned: 1.94 µM

Data request: Name the reported GI50 value associated with the molecule Cc1ccccc1NC(=O)NC(CC(N)=O)c1ccc2c(c1)nc(-c1cccc(Oc3ccc(C(C)(C)C)cc3)c1)n2CCCN1CCCCC1C (stereo not drawn)
Data returned: 4.19 µM

====

# System: EKVX NSCLC
# Experiment: NCI tumour cell line growth inhibition, 48 h
Quantity measured: GI50

Cn1c2ccccc2c2c3c(c4c5ccccc5n(CCCCCC#N)c4c21)C(=O)N(O)C3=O = 2.67 µM
COc1ccc(C(=O)Nc2cccc(C3CC(=O)c4c(cc(OC)c(OC)c4OC)O3)c2)cc1 (centres undefined) = 3.12 µM
CC1=C(C(=O)Nc2ccc(F)c(Cl)c2)C(c2cccc(Cl)c2)NC(=O)N1 (centres undefined) = 24.2 µM

Data request: State the recorded GI50 for this entry: O=Nc1c(-c2cccc([N+](=O)[O-])c2)nc2ncccn12
Data returned: 18.3 µM

Data request: Look up GI50 for this compound: C=C1C(=O)O[C@H]2[C@H]1CC/C(Cn1cc(CCC)nn1)=C\CC[C@@]1(C)O[C@@H]21
Data returned: 11.5 µM

Data request: Given O=C(Nc1ccccc1Cl)c1ccc(NC2=C(Cl)C(=O)N(Cc3ccccc3)C2=O)cc1 , state its recorded GI50.
Data returned: > 100 µM

Data request: Look at this compound and give its reported GI50. CN(C)/[N+]([O-])=N/Oc1cc(Nc2ccc(C(=O)O)cc2)c([N+](=O)[O-])cc1[N+](=O)[O-]
Data returned: 20.1 µM

Data request: Data request, read-out GI50, for O=C1c2cc3c(cc2-c2c1c1ccc([N+](=O)[O-])cc1c(=O)n2CCCCl)OCO3
Data returned: 6.13 µM

Data request: Which GI50 is reported for this compound? CC(CN(CP(=O)([O-])[O-])CP(=O)([O-])[O-])N(CP(=O)([O-])[O-])CP(=O)([O-])[O-].N[C@@H]1CCCC[C@@H]1N.[Pt+2] (centres undefined)
Data returned: > 100 µM

Data request: Recorded GI50 for N#Cc1c2ccccc2c2nnc3cc(Cl)c(Cl)cc3n12 , please?
Data returned: 48.6 µM

Data request: Tell me the measured GI50 of Cc1ccc(Cl)cc1Nc1nc(C(F)(F)F)ccc1C(=O)Oc1ccc(Cl)cc1 , please.
Data returned: 7.26 µM

Data request: Please give the measured GI50 for this compound: COc1cc2c(cc1-c1c(C)noc1C)ncc1nc(C3CCCCC3)n(C3CCC(OC(F)F)CC3)c12 (centres undefined)
Data returned: 2.31 µM

Data request: Field request: GI50 | item: O=Cc1ccc(C(F)(F)F)cc1.[C-]#[O+].[C-]#[O+].[C-]#[O+].[Cr]
Data returned: 16.3 µM

Data request: Fill in the blank: the reported GI50 of Cc1cc(S(N)(=O)=O)c(S/C(=N\NS(=O)(=O)c2ccc(Cl)cc2)c2ccc(Cl)cc2)cc1Cl is ____.
Data returned: > 100 µM
